# measurement-target: PLA2G16 (Homo sapiens)
readout-type: IC50

Below, each entry is followed by its recorded IC50 result.
>  <compound>
O=C(NCC1CC1)C(=O)C1CCCC(=O)N1Cc1ccccc1 (centres unmarked)

>  <readout-type>
IC50

>  <observed>
< 1 µM

$$$$
>  <compound>
COc1ccccc1N(C=O)C(C)C(=O)C(=O)N(C)Cc1cccc(Cl)c1 (centres unmarked)

>  <readout-type>
IC50

>  <observed>
< 1 µM

$$$$
>  <compound>
CC(C(=O)C(=O)NCc1cccc(Cl)c1)N(C=O)CC1CCOCC1 (centres unmarked)

>  <readout-type>
IC50

>  <observed>
< 1 µM

$$$$
>  <compound>
O=C(NC1CC1)C(=O)[C@H]1CCC(=O)N1Cc1ccc(Cl)cc1

>  <readout-type>
IC50

>  <observed>
< 1 µM

$$$$
>  <compound>
CC(C)S(=O)(=O)N1CCC(NC(=O)C(=O)[C@H]2CCC(=O)N2Cc2ccccc2)CC1

>  <readout-type>
IC50

>  <observed>
< 1 µM

$$$$

Q: IC50 of CC(C(=O)C(=O)NCC1CC1)N(C=O)CC1CCN(C(=O)C2CCCCC2)CC1 (centres unmarked) on PLA2G16 (Homo sapiens)?
Ans: 1 to 10 µM

---

Parameter pIC50: see the listing below.
# measurement-target: PLA2G16 (Homo sapiens, UniProt P53816)
# Sequence (P53816 whole entry): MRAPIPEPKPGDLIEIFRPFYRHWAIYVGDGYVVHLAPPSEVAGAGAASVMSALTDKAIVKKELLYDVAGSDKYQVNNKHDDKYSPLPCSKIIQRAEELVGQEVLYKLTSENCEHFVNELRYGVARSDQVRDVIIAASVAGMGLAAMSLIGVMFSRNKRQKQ
pIC50: −log10 of the molar value.

>  <molecule>
O=C(NCCCO)C(=O)C1CCC(=O)N1Cc1ccc(Cl)cc1 (centres unmarked) [FP 275]

>  <observed>
> 6.00

$$$$
>  <molecule>
CC(C)NC(=O)C(=O)C(C)OC1CCCCC1 (centres unmarked) [FP 125]

>  <observed>
5.00 to 6.00

$$$$

Q: pIC50 of CC(C(=O)C(=O)NCC1CCCCC1)N(C=O)[C@H]1CC[C@@H](NC(=O)OC(C)(C)C)CC1 (some centres unmarked) [FP 54] on PLA2G16 (Homo sapiens, UniProt P53816)?
Ans: > 6.00

Q: pIC50 of CC(NC(=O)C1CCN(CC(F)(F)F)CC1)C(=O)C(=O)NCC1CCCCC1 (centres unmarked) [FP 206] on PLA2G16 (Homo sapiens, UniProt P53816)?
Ans: > 6.00

Q: pIC50 of CC(C(=O)C(=O)NCC1CCCCC1)N(C=O)CC(F)(F)F (centres unmarked) [FP 50] on PLA2G16 (Homo sapiens, UniProt P53816)?
Ans: > 6.00

Q: pIC50 of CCNC(=O)C(=O)[C@H]1CCC(=O)N1Cc1ccccc1 [FP 265] on PLA2G16 (Homo sapiens, UniProt P53816)?
Ans: > 6.00

Q: pIC50 of COc1ccccc1N(C=O)C(C)C(=O)C(N)=O (centres unmarked) [FP 14] on PLA2G16 (Homo sapiens, UniProt P53816)?
Ans: 5.00 to 6.00

Q: pIC50 of CC(C)C(=O)N1CCC(CN(C=O)C(C)C(=O)C(=O)NCC2CCCCC2)CC1 (centres unmarked) [FP 78] on PLA2G16 (Homo sapiens, UniProt P53816)?
Ans: 5.00 to 6.00

---

# Tested on: picornaviruses (CVB1, HRV-A2, HRV-A23, EV-68)
# assay-notes: Anti-picornavirus cytopathic effect (CPE) reduction assay on HeLa H1 cells
# Format: cell-based
# details: Enterovirus B, HeLa H1, 48 h, HeLa H1 cells, 48 h, category from averaging the EC50 values from four picornaviruses (CVB1, HRV-A2, HRV-A23, EV68); read-out: EC50 values of the compounds determined in the anti-picornavirus assay
readout-type: EC50

Below, each entry is followed by its recorded EC50 result.
>  <compound>
CC(NC(=O)c1c(Cl)cccc1Cl)C(=O)C(=O)NCC1CC1 (centres unmarked) [FP 163]

>  <measurement-target>
picornaviruses (CVB1, HRV-A2, HRV-A23, EV-68)

>  <readout-type>
EC50

>  <observed>
< 1000 nM

$$$$
>  <compound>
CC(C(=O)C(=O)NCCOc1ccccc1)N(C=O)C1CCCCC1 (centres unmarked) [FP 109]

>  <measurement-target>
picornaviruses (CVB1, HRV-A2, HRV-A23, EV-68)

>  <readout-type>
EC50

>  <observed>
< 1000 nM

$$$$
>  <compound>
CC(C(=O)C(=O)NCc1cccc(Cl)c1)N(C=O)CC1CCOCC1 (centres unmarked) [FP 24]

>  <measurement-target>
picornaviruses (CVB1, HRV-A2, HRV-A23, EV-68)

>  <readout-type>
EC50

>  <observed>
1000 to 10000 nM

$$$$
>  <compound>
O=C(NCCCc1nccs1)C(=O)C1CCC(=O)N1Cc1ccccc1 (centres unmarked) [FP 229]

>  <measurement-target>
picornaviruses (CVB1, HRV-A2, HRV-A23, EV-68)

>  <readout-type>
EC50

>  <observed>
< 1000 nM

$$$$
>  <compound>
CC(OCC(C)(C)C)C(=O)C(=O)NCC1CC1 (centres unmarked) [FP 122]

>  <measurement-target>
picornaviruses (CVB1, HRV-A2, HRV-A23, EV-68)

>  <readout-type>
EC50

>  <observed>
1000 to 10000 nM

$$$$
>  <compound>
CCC(C(=O)C(=O)NCC1CCCCC1)N(C=O)CC1CCN(C(=O)OC(C)(C)C)CC1 (centres unmarked) [FP 59]

>  <measurement-target>
picornaviruses (CVB1, HRV-A2, HRV-A23, EV-68)

>  <readout-type>
EC50

>  <observed>
1000 to 10000 nM

$$$$

Q: May I ask what EC50 has been recorded for CC(C(=O)C(=O)NCC1CCCCC1)N(C=O)CC1CC1 (centres unmarked) [FP 51] ?
Ans: 1000 to 10000 nM

Q: May I ask what EC50 has been recorded for CC(C)CC(C(=O)C(=O)NCC1CC1)N(C=O)CC1CCCO1 (centres unmarked) [FP 74] ?
Ans: 1000 to 10000 nM

---

Parameter pEC50: see the listing below.
# System: picornaviruses (CVB1, HRV-A2, HRV-A23, EV-68)
# assay-notes: Anti-picornavirus cytopathic effect (CPE) reduction assay on HeLa H1 cells
# Type: cell-based
# details: Enterovirus B, HeLa H1, 48 h, HeLa H1 cells, 48 h, category from averaging the EC50 values from four picornaviruses (CVB1, HRV-A2, HRV-A23, EV68); read-out: EC50 values of the compounds determined in the anti-picornavirus assay
pEC50: −log10 of the molar value.

>  <molecule>
O=C(NCC1CCCCC1)C(=O)C1CCC(=O)N1CC1CCOCC1 (centres unmarked)

>  <observed>
> 6.00

$$$$

Q: pEC50 of CC(C)C(=O)N1CCC(CN(C=O)C(C)C(=O)C(=O)NCC2CCCCC2)CC1 (centres unmarked) on picornaviruses (CVB1, HRV-A2, HRV-A23, EV-68)?
Ans: < 5.00

Q: pEC50 of COc1ccc(CNC(=O)C(=O)C(C)N(C=O)c2ccccc2OC)cc1 (centres unmarked) on picornaviruses (CVB1, HRV-A2, HRV-A23, EV-68)?
Ans: 5.00 to 6.00

Q: pEC50 of CCNC(=O)C(=O)C1N(Cc2ccccc2)C(=O)CC12CC2 (centres unmarked) on picornaviruses (CVB1, HRV-A2, HRV-A23, EV-68)?
Ans: > 6.00

Q: pEC50 of CC(C(=O)C(=O)NCCC1CCOCC1)N(C=O)C1CCCCC1 (centres unmarked) on picornaviruses (CVB1, HRV-A2, HRV-A23, EV-68)?
Ans: 5.00 to 6.00

Q: pEC50 of CC(NS(=O)(=O)c1ccccc1)C(=O)C(=O)NCC1CCCCC1 (centres unmarked) on picornaviruses (CVB1, HRV-A2, HRV-A23, EV-68)?
Ans: 5.00 to 6.00

Q: pEC50 of CCC1CC(=O)N(Cc2ccccc2)C1C(=O)C(=O)NC1CCOCC1 (centres unmarked) on picornaviruses (CVB1, HRV-A2, HRV-A23, EV-68)?
Ans: > 6.00

Q: pEC50 of CC(C)NC(=O)C(=O)C(C)N(C=O)C1CCCCC1 (centres unmarked) on picornaviruses (CVB1, HRV-A2, HRV-A23, EV-68)?
Ans: 5.00 to 6.00

Q: pEC50 of CC(C(=O)C(=O)NCC1CC1)N(C=O)C1CCCCC1 (centres unmarked) on picornaviruses (CVB1, HRV-A2, HRV-A23, EV-68)?
Ans: > 6.00

Q: pEC50 of CCCC(NS(=O)(=O)c1ccccc1)C(=O)C(=O)NCC1CC1 (centres unmarked) on picornaviruses (CVB1, HRV-A2, HRV-A23, EV-68)?
Ans: 5.00 to 6.00

Q: pEC50 of CC(C)CNC(=O)C(=O)C(C)NC(=O)c1ccccc1 (centres unmarked) on picornaviruses (CVB1, HRV-A2, HRV-A23, EV-68)?
Ans: < 5.00
